pKi: −log10 of the molar value.
pKi values for 5-hydroxytryptamine receptor 1A (Rattus norvegicus) compiled from several publications are listed below.
Label scheme for pKi: lower than 7 is rule not met, 7 and above is rule met.

>>> discrete_label("COc1ccc2c(c1)CCC(CN1CCN(c3ccccn3)CC1)C2 (stereo not given)")
"rule not met"
>>> discrete_label("Cc1cccc(N2CCN(CCCCCCN3CCN(c4cccc(C)n4)CC3)CC2)c1")
"rule met"
>>> discrete_label("O=c1c(-c2ccc(Cl)cc2)c2n(c(=O)n1CCCCN1CCC(c3c[nH]c4ccccc34)CC1)CCCC2")
"rule met"
>>> discrete_label("CN1CCc2ccc(OCCCN3CCN(c4ccc(Cl)cc4)CC3)cc2C1=O")
"rule not met"
>>> discrete_label("c1cnc(N2CCN(CCCOc3ccc(-c4nc5ccccc5o4)cc3)CC2)nc1")
"rule met"

* * *

Target: 5-hydroxytryptamine receptor 1A (Rattus norvegicus, UniProt P19327)
Sequence (P19327 whole entry): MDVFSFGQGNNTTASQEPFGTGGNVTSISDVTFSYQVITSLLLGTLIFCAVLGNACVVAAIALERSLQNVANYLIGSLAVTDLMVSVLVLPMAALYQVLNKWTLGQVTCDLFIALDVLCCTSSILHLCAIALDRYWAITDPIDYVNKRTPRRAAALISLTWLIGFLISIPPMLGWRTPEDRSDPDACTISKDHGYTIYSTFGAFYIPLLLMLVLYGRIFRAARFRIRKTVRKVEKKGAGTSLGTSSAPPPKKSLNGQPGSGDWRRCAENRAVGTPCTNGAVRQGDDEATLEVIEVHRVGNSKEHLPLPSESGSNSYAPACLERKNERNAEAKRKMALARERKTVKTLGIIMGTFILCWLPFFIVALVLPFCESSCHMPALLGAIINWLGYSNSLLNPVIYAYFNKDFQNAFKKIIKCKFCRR
pKi: −log10 of the molar value.
pKi values for 5-hydroxytryptamine receptor 1A (Rattus norvegicus, UniProt P19327), compiled from several publications.
Parameter threshold = 8. Response is Satisfied when pKi meets or exceeds it, else Not satisfied.

>>> discrete_label("Cc1ccc2c(c1O)-c1cccc3c1[C@@H](C2)N(Cc1ccccc1)CC3")
"Not satisfied"
>>> discrete_label("CCC1(CCCCN2CCN(c3cccc(C(F)(F)F)c3)CC2)C(=O)Nc2ccccc21 (stereo unspecified)")
"Not satisfied"
>>> discrete_label("O=C1CCCC(=O)N1CCN1CCN(c2cccc3c2OCCO3)CC1")
"Not satisfied"
>>> discrete_label("CN1CCN(c2cc3c4c(cccc4n2)-c2ccccc2-3)CC1")
"Not satisfied"
>>> discrete_label("COc1ccc(N2CCN(CC[C@H]3CC[C@H](Nc4ncccn4)CC3)CC2)cc1")
"Not satisfied"
>>> discrete_label("CN(C)CC(O)COc1cccc2ccccc12 (stereo unspecified)")
"Not satisfied"
>>> discrete_label("O=c1ccc(-n2cnc3ccccc32)nn1CCN1CCN(c2ccccc2Cl)CC1")
"Not satisfied"
>>> discrete_label("CN(C)C(=O)N1CCC(CN2CCC(c3noc4cc(F)ccc34)CC2)CC1")
"Not satisfied"
>>> discrete_label("O=c1cc(CO)c2ccc(OCCCCN3CCC(c4noc5cc(F)ccc45)CC3)cc2o1")
"Not satisfied"
>>> discrete_label("O=C1NC2(CCC(c3ccccc3)CC2)C(=O)N1CCCCN1CCN(c2cccc(C(F)(F)F)c2)CC1 (stereo unspecified)")
"Not satisfied"
>>> discrete_label("O=C(c1cccc(CN2CCC(c3ccccc3)C2)c1)N1CCCCC1 (stereo unspecified)")
"Not satisfied"
>>> discrete_label("Cc1ccc(-c2c(=O)n(CCCCN3CCC(c4c[nH]c5ccccc45)CC3)c(=O)n3ccccc23)cc1")
"Satisfied"
>>> discrete_label("CCCNC(=O)c1ccccc1N1CCN(CCCCN2CC(=O)N3CCCC3C2=O)CC1 (stereo unspecified)")
"Not satisfied"
>>> discrete_label("C[C@@H]1CN(CCCCc2ccc3c(c2)sc(=O)n3C)C[C@H](C)N1")
"Not satisfied"
>>> discrete_label("O=C1CCc2cc(C(O)CCCN3CCC(c4noc5cc(F)ccc45)CC3)cc3c2N1CC3 (stereo unspecified)")
"Not satisfied"
>>> discrete_label("O=c1ccc(OCCCN2CCC(c3noc4cc(F)ccc34)CC2)nn1-c1ccc(F)c(Cl)c1")
"Not satisfied"
>>> discrete_label("CCCN(CCCCN1C(=O)CC2(CCCC2)CC1=O)[C@H]1CCc2c(F)ccc(OC)c2C1")
"Satisfied"
>>> discrete_label("COc1ccccc1N1CCN(CCCCCn2cnc3c2c(=O)n(C)c(=O)n3C)CC1.Cl")
"Satisfied"
>>> discrete_label("Cc1cccc(N2CCN(CCCCn3c(C)cn4c5c(=O)n(C)c(=O)n(C)c5nc34)CC2)c1C")
"Satisfied"
>>> discrete_label("CC(=O)OC12C=C(C)C(C(C)C1)C1C(=O)N(CCCCN3CCN(c4ccc(F)cc4)CC3)C(=O)C12 (stereo unspecified)")
"Not satisfied"
>>> discrete_label("Fc1cccc2c1CC[C@@H](NCc1ccccc1)C2")
"Not satisfied"
>>> discrete_label("CCCN(CCCCN1C(=O)CC(C)(C)CC1=O)C1COc2cccc(OC)c2C1 (stereo unspecified)")
"Satisfied"
>>> discrete_label("COc1cccc(OC)c1OCCNC[C@@H]1COc2cc3ccccc3cc2O1")
"Not satisfied"
>>> discrete_label("CN1CCc2ccc(OCCCCN3CCN(c4cccc(C(F)(F)F)c4)CC3)cc2C1=O")
"Not satisfied"
>>> discrete_label("O=C1C2CCCN2C(=O)N1CCCN1CCN(c2cccc(C(F)(F)F)c2)CC1 (stereo unspecified)")
"Satisfied"
>>> discrete_label("O=C(NCCCN1CCN(Cc2ccc3c(c2)OCO3)CC1)c1ccccn1")
"Not satisfied"
>>> discrete_label("Cc1ccc(CNCC2(F)CCN(C(=O)c3ccc(F)c(Cl)c3)CC2)nc1-n1cccn1")
"Satisfied"
>>> discrete_label("COc1ccc2c(c1)CCN([C@H]1CC[C@H](c3c[nH]c4ccc(C#N)cc43)CC1)C2")
"Not satisfied"
>>> discrete_label("CN(C)c1cccc(CNCC2CCN(C(=O)c3ccc(Cl)c(Cl)c3)CC2)n1")
"Satisfied"
>>> discrete_label("O=S(=O)(NCCCCN1CCc2ccccc2C1)c1ccc2ncccc2c1")
"Not satisfied"
>>> discrete_label("COc1ccccc1N1CCN(CCN(C(=O)c2ccc(F)cc2)c2ccccn2)CC1")
"Satisfied"
>>> discrete_label("Cc1cccc(C)c1-c1cccc(SCCN(C)C)n1")
"Not satisfied"
>>> discrete_label("O=C(CCN1CCC(c2nc3ccccc3s2)CC1)c1cc2c3c(c1)CCC(=O)N3CCC2")
"Not satisfied"
>>> discrete_label("Cn1c(=O)c2c(nc3n(CCCCN4CCN(c5ccccc5O)CC4)ccn23)n(C)c1=O")
"Satisfied"
>>> discrete_label("CCCN(CCC)C1COc2c(cccc2-c2ccc(C(F)(F)F)cc2)C1 (stereo unspecified)")
"Not satisfied"
>>> discrete_label("CN1C2CCCC1CC(NC(=O)c1nn(C)c3ccccc13)C2 (stereo unspecified)")
"Not satisfied"
